Procedure Text: Measurement of Papp values across Caco-2 cell monolayers (Example 15)
Assay type: in vitro ADME
Measurement Setup: human, initial concentration in donor (apical) chamber 25 μM, 37° C.
Observation Type: Papp A→B at 2 h, 25 μM (×10⁻⁶ cm/s)
Entry rule: numbers only, all in ×10⁻⁶ cm/s.

Given the entry "COc1cc2nc(N3CCc4c(cccc4NS(C)(=O)=O)C3)nc(N)c2c(-c2ccccn2)c1OC.CS(=O)(=O)O" , report its measured Papp A→B at 2 h, 25 μM.
11
